B1: POU domain, class 3, transcription factor 1, residues 247 to 324; numbered along this chain, Q03052 (parent)
chain: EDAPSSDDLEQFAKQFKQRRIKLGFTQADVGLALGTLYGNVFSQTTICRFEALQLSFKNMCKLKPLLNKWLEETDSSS

- Variants of: B1
- assayRemarks: abundance fitness (aPCA) (normalised: wild type 0, dead -1); higher = more abundant; growth selection in yeast, the domain comes from the species named
- conditionParameters: Homo sapiens
Catalogue of abundance fitness readings, one per entry.
propertyMeasured: abundance fitness

{"columns": ["mutantId", "endpointValue"],
 "data": [
  ["G31Y", -0.957],
  ["N40I", -0.117],
  ["L67C", -0.427],
  ["W70H", -0.374],
  ["G24K", -0.423],
  ["K22D", 0.038],
  ["K69A", -0.161],
  ["G31T", -0.085],
  ["F50P", -0.484],
  ["L53D", -0.646],
  ["Q27I", 0.045],
  ["P65G", -0.167],
  ["T74R", -0.009],
  ["K64R", 0.002],
  ["D75Q", 0.165],
  ["D29L", -0.547],
  ["G35W", -0.439],
  ["S76R", 0.058],
  ["V41I", 0.025],
  ["A28Y", -0.213],
  ["F42E", -0.114],
  ["F25D", -0.811]
]}
